- experimental.system: BaF3 cell lines stably transfected with kinase EGFR L858R/T790M/C797S (Homo sapiens, UniProt P00533, T790M/C797S/L858R, cells depend on it)
- Sequence (P00533 whole entry T790M/C797S/L858R): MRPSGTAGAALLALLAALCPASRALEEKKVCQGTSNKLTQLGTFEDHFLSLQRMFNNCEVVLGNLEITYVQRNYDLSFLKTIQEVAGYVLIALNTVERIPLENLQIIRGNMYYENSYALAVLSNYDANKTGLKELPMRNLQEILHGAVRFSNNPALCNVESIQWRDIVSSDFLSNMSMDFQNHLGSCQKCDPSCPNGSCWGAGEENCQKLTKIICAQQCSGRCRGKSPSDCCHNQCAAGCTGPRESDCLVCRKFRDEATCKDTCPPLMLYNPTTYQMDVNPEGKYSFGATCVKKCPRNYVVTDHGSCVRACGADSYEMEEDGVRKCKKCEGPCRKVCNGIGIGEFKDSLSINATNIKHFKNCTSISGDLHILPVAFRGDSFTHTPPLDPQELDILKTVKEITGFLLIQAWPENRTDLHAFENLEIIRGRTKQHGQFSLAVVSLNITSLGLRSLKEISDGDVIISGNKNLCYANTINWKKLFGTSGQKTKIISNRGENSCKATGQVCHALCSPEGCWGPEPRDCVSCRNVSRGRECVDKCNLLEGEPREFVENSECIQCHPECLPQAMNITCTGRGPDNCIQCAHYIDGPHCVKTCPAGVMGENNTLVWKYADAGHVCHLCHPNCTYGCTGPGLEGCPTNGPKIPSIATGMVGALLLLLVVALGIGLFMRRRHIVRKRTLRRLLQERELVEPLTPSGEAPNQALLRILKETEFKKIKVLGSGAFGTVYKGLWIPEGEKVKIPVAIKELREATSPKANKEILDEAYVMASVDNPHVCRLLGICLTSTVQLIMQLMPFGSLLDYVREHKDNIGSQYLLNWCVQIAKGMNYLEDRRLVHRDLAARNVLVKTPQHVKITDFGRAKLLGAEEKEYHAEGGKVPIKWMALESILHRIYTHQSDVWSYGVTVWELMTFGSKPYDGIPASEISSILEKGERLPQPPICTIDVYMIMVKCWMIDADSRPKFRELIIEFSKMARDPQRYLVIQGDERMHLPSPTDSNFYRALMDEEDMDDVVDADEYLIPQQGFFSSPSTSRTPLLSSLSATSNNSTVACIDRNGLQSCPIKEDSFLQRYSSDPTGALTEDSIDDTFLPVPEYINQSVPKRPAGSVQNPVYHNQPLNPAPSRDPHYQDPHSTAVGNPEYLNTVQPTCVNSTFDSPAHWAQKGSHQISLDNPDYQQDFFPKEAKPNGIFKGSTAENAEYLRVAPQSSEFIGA
- procedure.text: Growth inhibition of BaF3 cell line stably transfected with kinase EGFR L858R/T790M/C797S (MTS)
- Assay type: cell-based
- conditions.used: 48 h, read-out: growth inhibitory activity IC50, L858R/T790M/C797S
measured.attribute: GI50

The compound identified as C=Cc1cnc(Nc2cc(CC)c(N3CCC(N4CCN(C)CC4)CC3)cc2OC)nc1Nc1ccc2nccnc2c1N(C)S(=O)(=O)C(F)(F)F [II-8] registered its GI50 at 50 to 500 nM

The compound identified as C=Cc1cnc(Nc2cnn(C)c2)nc1Nc1ccc2nccnc2c1N(C)S(C)(=O)=O [II-65] registered its GI50 at 50 to 500 nM

The compound identified as C=Cc1cnc(Nc2cc(CC)c(N3CCC(N(C)C)CC3)cc2OC)nc1Nc1ccc2nccnc2c1S(=O)(=O)NC [IV-13] registered its GI50 at 50 to 500 nM

The compound identified as C=Cc1cnc(Nc2cc(CC)c(N3CCC(N4CCN(C)CC4)CC3)cc2OC)nc1Nc1ccc2nccnc2c1NS(=O)(=O)C(C)C [II-44] registered its GI50 at ≤ 50 nM

The compound identified as C=Cc1cnc(Nc2cc(C(C)C)c(N3CCC(N4CCN(C)CC4)CC3)cc2OC)nc1Nc1ccc2nccnc2c1S(=O)(=O)NC [IV-6] registered its GI50 at 500 to 2500 nM

The compound identified as C=Cc1cnc(Nc2cc(CC)c(N3CCC(N4CCN(C)CC4)CC3)cc2OC(F)(F)F)nc1Nc1ccc2nccnc2c1P(C)(C)=O [Compound I-6] registered its GI50 at ≤ 50 nM

The compound identified as C=Cc1cnc(Nc2ccc(N3CCC(N4CCN(C)CC4)CC3)cc2OC)nc1Nc1ccc2nccnc2c1NS(=O)(=O)C(C)C [II-42] registered its GI50 at 50 to 500 nM

The compound identified as C=Cc1cnc(Nc2cc(C(C)C)c(N3CCC(N4CCN(C)CC4)CC3)cc2OC)nc1Nc1ccc2nccnc2c1P(C)(C)=O [Compound I-16] registered its GI50 at 50 to 500 nM

The compound identified as C=C(C)c1cnc(Nc2cc(CC)c(N3CCC(N4CCN(C)CC4)CC3)cc2OC)nc1Nc1ccc2nccnc2c1N(C)S(C)(=O)=O [II-21] registered its GI50 at ≤ 50 nM

The compound identified as C=Cc1cnc(Nc2ccc(N3CCC(N4CCN(C)CC4)CC3)c(F)c2F)nc1Nc1ccc2nccnc2c1S(=O)(=O)NC [IV-10] registered its GI50 at 50 to 500 nM

The compound identified as C=Cc1cnc(Nc2cc(CC)c(N3CCC4(CC3)CC(N(C)C)C4)cc2OC)nc1Nc1ccc2nccnc2c1N(C)S(C)(=O)=O [II-55] registered its GI50 at 50 to 500 nM

The compound identified as C=Cc1cnc(Nc2ccc(N3CCC(N4CCN(C)CC4)CC3)cc2OC)nc1Nc1ccc2nccnc2c1N(C)S(C)(=O)=O [II-16] registered its GI50 at 50 to 500 nM

The compound identified as CCc1cc(Nc2ncc(/C=C/C3CC3)c(Nc3ccc4nccnc4c3N(C)S(C)(=O)=O)n2)c(OC)cc1N1CCC(N2CCN(C)CC2)CC1 [II-28] registered its GI50 at 500 to 2500 nM

The compound identified as C=Cc1cnc(Nc2cc(CC)c(N3CCC(N4CCN(C)CC4)CC3)nc2OC)nc1Nc1ccc2nccnc2c1N(C)S(C)(=O)=O [II-5] registered its GI50 at 50 to 500 nM

The compound identified as C=Cc1cnc(Nc2cc(CC)c(N3CCC(N(C)C)C3)cc2OC)nc1Nc1ccc2nccnc2c1S(C)(=O)=O (stereo not shown) [III-3] registered its GI50 at 500 to 2500 nM

The compound identified as C=Cc1cnc(Nc2cc3c(cc2F)CCN(C)C3)nc1Nc1ccc2nccnc2c1N(C)S(C)(=O)=O [II-74] registered its GI50 at 50 to 500 nM

The compound identified as C=C(C)c1cnc(Nc2cn[nH]c2)nc1Nc1ccc2nccnc2c1N(C)S(C)(=O)=O [II-70] registered its GI50 at 50 to 500 nM

The compound identified as C=Cc1cnc(Nc2cc(CC)c(N3CCN(C)CC3)cc2OC)nc1Nc1ccc2nccnc2c1P(C)(C)=O [Compound I-4] registered its GI50 at ≤ 50 nM

The compound identified as C=Cc1cnc(Nc2cc(CC)c(N3CCC(N4CCN(C)CC4)CC3)cc2OC(F)(F)F)nc1Nc1ccc2nccnc2c1NS(C)(=O)=O [II-34] registered its GI50 at 50 to 500 nM

The compound identified as C=Cc1cnc(Nc2ccc3c(c2)CCN(C)CC3)nc1Nc1ccc2nccnc2c1P(C)(C)=O [Compound I-24] registered its GI50 at 50 to 500 nM

The compound identified as C=Cc1cnc(Nc2cc(CC)c(N3CCC(N(C)C)CC3)cc2OC)nc1Nc1ccc2nccnc2c1S(C)(=O)=O [III-2] registered its GI50 at 50 to 500 nM

The compound identified as CCc1cc(Nc2ncc(C=C(C)C)c(Nc3ccc4nccnc4c3P(C)(C)=O)n2)c(OC)cc1N1CCC(N2CCN(C)CC2)CC1 [Compound I-10] registered its GI50 at 50 to 500 nM

The compound identified as C=Cc1cnc(Nc2cc(CC3CC3)c(N3CCC(N4CCN(C)CC4)CC3)cc2OC)nc1Nc1ccc2nccnc2c1P(C)(C)=O [Compound I-7] registered its GI50 at ≤ 50 nM

The compound identified as C=Cc1cnc(Nc2cc(C)c(N3CCC(N4CCN(C)CC4)CC3)cc2OC)nc1Nc1ccc2nccnc2c1NS(=O)(=O)C(C)C [II-43] registered its GI50 at 50 to 500 nM

The compound identified as C=Cc1cnc(Nc2cc(CC)c(NCCO)cc2OC)nc1Nc1ccc2nccnc2c1N(C)S(C)(=O)=O [II-49] registered its GI50 at 50 to 500 nM

The compound identified as C=Cc1cnc(Nc2cc(CC)c(N3CCC(N4CCN(C)CC4)CC3)cc2OC)nc1Nc1ccc2nccnc2c1S(C)(=O)=O [III-1] registered its GI50 at 500 to 2500 nM

The compound identified as C=Cc1cnc(Nc2cc(C)c(N3CCC(N4CCN(C)CC4)CC3)cc2OC)nc1Nc1ccc2nccnc2c1P(C)(C)=O [Compound I-9] registered its GI50 at ≤ 50 nM

The compound identified as C=C(C)c1cnc(Nc2cc(C3CC3)c(N3CCC(N4CCN(C)CC4)CC3)cc2OC)nc1Nc1ccc2nccnc2c1N(C)S(C)(=O)=O [II-23] registered its GI50 at 50 to 500 nM

###

- experimental.system: BaF3 cell lines stably transfected with kinase EGFR Del (Homo sapiens, UniProt P00533, cells depend on it, form not given)
- Sequence (P00533 with tags, fused parts or gaps DEL746-750): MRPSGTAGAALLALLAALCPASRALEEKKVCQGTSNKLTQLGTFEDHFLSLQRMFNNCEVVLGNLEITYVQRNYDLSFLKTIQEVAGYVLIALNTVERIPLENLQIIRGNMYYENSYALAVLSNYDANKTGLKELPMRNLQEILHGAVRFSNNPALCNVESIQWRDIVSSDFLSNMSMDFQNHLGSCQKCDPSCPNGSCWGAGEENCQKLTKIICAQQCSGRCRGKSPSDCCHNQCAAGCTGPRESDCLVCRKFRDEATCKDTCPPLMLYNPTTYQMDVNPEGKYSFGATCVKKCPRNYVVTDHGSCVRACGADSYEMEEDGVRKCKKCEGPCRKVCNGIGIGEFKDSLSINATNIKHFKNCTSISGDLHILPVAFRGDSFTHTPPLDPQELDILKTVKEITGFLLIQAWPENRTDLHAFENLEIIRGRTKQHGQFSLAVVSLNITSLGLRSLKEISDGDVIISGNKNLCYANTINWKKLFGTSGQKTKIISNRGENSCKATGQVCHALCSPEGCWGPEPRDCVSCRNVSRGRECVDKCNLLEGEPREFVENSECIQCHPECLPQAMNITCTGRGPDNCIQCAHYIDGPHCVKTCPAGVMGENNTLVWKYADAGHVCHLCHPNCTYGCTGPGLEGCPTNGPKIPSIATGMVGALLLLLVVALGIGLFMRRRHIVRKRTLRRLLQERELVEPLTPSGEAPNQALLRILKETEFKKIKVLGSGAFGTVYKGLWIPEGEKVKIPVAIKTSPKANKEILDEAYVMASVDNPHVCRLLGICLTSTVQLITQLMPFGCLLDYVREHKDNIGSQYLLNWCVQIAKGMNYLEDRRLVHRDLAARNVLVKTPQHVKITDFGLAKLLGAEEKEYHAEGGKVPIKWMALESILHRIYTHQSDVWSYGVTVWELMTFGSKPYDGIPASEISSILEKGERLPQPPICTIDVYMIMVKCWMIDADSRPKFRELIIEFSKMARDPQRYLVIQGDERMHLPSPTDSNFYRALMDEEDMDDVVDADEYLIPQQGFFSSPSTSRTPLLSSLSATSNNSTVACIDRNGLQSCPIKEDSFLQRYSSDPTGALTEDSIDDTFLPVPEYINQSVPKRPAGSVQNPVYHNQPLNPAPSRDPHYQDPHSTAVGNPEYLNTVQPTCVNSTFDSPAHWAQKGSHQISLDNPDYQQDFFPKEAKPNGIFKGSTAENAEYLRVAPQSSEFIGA
- procedure.text: Growth inhibition of BaF3 cell line stably transfected with kinase EGFR Del (MTS)
- Type: cell-based
- conditions.used: 48 h, read-out: growth inhibitory activity IC50, Del
- Description: Biological Activity Assay: Growth Inhibitory Activity of Compounds on Cell Lines Stably Transfected with Kinase The activity of compounds against various mutants of kinase EGFR was evaluated by their effect of inhibiting growth of BaF3 cell lines stably transfected with kinase. […] 4) IC50 calculation: The semi-inhibitory concentration of the compounds acting on cells was calculated using GradPad Prism 5 software according to the measured cell growth inhibition rate.
For each record, write down the corresponding GI50.

The compound identified as C=Cc1cnc(Nc2cc(CC)c(N3CCC(N4CCN(C)CC4)CC3)cc2OC(F)(F)F)nc1Nc1ccc2nccnc2c1S(=O)(=O)NC [IV-5] registered its GI50 at 500 to 2500 nM

The compound identified as CCc1cc(Nc2ncc(C=C(C)C)c(Nc3ccc4nccnc4c3P(C)(C)=O)n2)c(OC)cc1N1CCC(N2CCN(C)CC2)CC1 [Compound I-10] registered its GI50 at ≤ 50 nM

The compound identified as C=Cc1cnc(Nc2ccc3c(c2)CCN(C)CC3)nc1Nc1ccc2nccnc2c1P(C)(C)=O [Compound I-24] registered its GI50 at 50 to 500 nM

The compound identified as C=C(C)c1cnc(Nc2cc(CC)c(N3CCC(N4CCN(C)CC4)CC3)cc2OC)nc1Nc1ccc2nccnc2c1N(C)S(C)(=O)=O [II-21] registered its GI50 at ≤ 50 nM

The compound identified as C=Cc1cnc(Nc2cc(C(C)C)c(N3CCC(N4CCN(C)CC4)CC3)cc2OC)nc1Nc1ccc2nccnc2c1NS(C)(=O)=O [II-35] registered its GI50 at 50 to 500 nM

The compound identified as C=C(C)c1cnc(Nc2cc(C(C)C)c(N3CCC(N4CCN(C)CC4)CC3)cc2OC)nc1Nc1ccc2nccnc2c1N(C)S(C)(=O)=O [II-22] registered its GI50 at 50 to 500 nM

The compound identified as C=Cc1cnc(Nc2cc(CC)c(N3CCC(C4CN(C)C4)CC3)cc2OC)nc1Nc1ccc2nccnc2c1N(C)S(C)(=O)=O [II-54] registered its GI50 at ≤ 50 nM

The compound identified as C=Cc1cnc(Nc2cc(CC)c(N3CCC(N4CCN(C)CC4)CC3)nc2OC)nc1Nc1ccc2nccnc2c1S(=O)(=O)NC [IV-4] registered its GI50 at 500 to 2500 nM

The compound identified as C=Cc1cnc(Nc2cc(CC)c(N3CCN(C)CC3)cc2OC)nc1Nc1ccc2nccnc2c1S(C)(=O)=O [III-4] registered its GI50 at 500 to 2500 nM

The compound identified as C=Cc1cnc(Nc2cc(CC)n(C)n2)nc1Nc1ccc2nccnc2c1N(C)S(C)(=O)=O [II-63] registered its GI50 at 50 to 500 nM

The compound identified as C=Cc1cnc(Nc2cc(C)c(N3CCC(N4CCN(C)CC4)CC3)cc2OC)nc1Nc1ccc2nccnc2c1S(=O)(=O)C(C)C [III-19] registered its GI50 at 50 to 500 nM

The compound identified as C=Cc1cnc(Nc2cc(CC)c(N3CCC(N4CCN(C)CC4)CC3)cc2OC)nc1Nc1ccc2nccnc2c1N(C)S(=O)(=O)C(F)(F)F [II-8] registered its GI50 at 50 to 500 nM

The compound identified as C=Cc1cnc(Nc2cc(C)c(N3CCC(N4CCN(C)CC4)CC3)cc2OC)nc1Nc1ccc2nccnc2c1NS(=O)(=O)C(C)C [II-43] registered its GI50 at 50 to 500 nM

The compound identified as C=Cc1cnc(Nc2cc(C3CC3)c(N3CCC(N4CCN(C)CC4)CC3)cc2OC)nc1Nc1ccc2nccnc2c1N(C)S(C)(=O)=O [II-18] registered its GI50 at 50 to 500 nM

The compound identified as C=C(C)c1cnc(Nc2cc[nH]n2)nc1Nc1ccc2nccnc2c1N(C)S(C)(=O)=O [II-69] registered its GI50 at 50 to 500 nM

The compound identified as C=Cc1cnc(Nc2cc(CC)c(N3CCC(N(C)C)C3)cc2OC)nc1Nc1ccc2nccnc2c1N(C)S(C)(=O)=O (stereo not shown) [II-3] registered its GI50 at ≤ 50 nM

The compound identified as C=Cc1cnc(Nc2cc(CC)c(N3CCC(N4CCN(C)CC4)CC3)nc2OC)nc1Nc1ccc2nccnc2c1P(C)(C)=O [Compound I-5] registered its GI50 at ≤ 50 nM

The compound identified as C=Cc1cnc(Nc2cc(CC)c(N3CCC(N4CCN(C)CC4)CC3)cc2OC)nc1Nc1ccc2nccnc2c1N(C)S(C)(=O)=O [II-1] registered its GI50 at ≤ 50 nM

The compound identified as C=Cc1cnc(Nc2cc(C)c(N3CCC(N4CCN(C)CC4)CC3)cc2OC)nc1Nc1ccc2nccnc2c1N(C)S(C)(=O)=O [II-15] registered its GI50 at ≤ 50 nM

The compound identified as C=Cc1cnc(Nc2ccc(N3CCC(N4CCN(C)CC4)CC3)c(CC)c2)nc1Nc1ccc2nccnc2c1S(C)(=O)=O [III-14] registered its GI50 at 50 to 500 nM

The compound identified as C=C(C)c1cnc(Nc2cc(CC)c(N3CCC(N4CCN(C)CC4)CC3)cc2OC)nc1Nc1ccc2nccnc2c1P(C)(C)=O [Compound I-15] registered its GI50 at ≤ 50 nM

The compound identified as C=Cc1cnc(Nc2cc(CC)c(NCCO)cc2OC)nc1Nc1ccc2nccnc2c1N(C)S(C)(=O)=O [II-49] registered its GI50 at 500 to 2500 nM

The compound identified as C=C(C)c1cnc(Nc2cc(C3CC3)c(N3CCC(N4CCN(C)CC4)CC3)cc2OC)nc1Nc1ccc2nccnc2c1N(C)S(C)(=O)=O [II-23] registered its GI50 at ≤ 50 nM

The compound identified as C=Cc1cnc(Nc2cc(CC)c(N3CCC(N4CCN(C)CC4)CC3)cc2OC)nc1Nc1ccc2nccnc2c1N(CC)S(C)(=O)=O [II-12] registered its GI50 at ≤ 50 nM

The compound identified as C=Cc1cnc(Nc2cc3c(cc2OC)CCN(C)C3)nc1Nc1ccc2nccnc2c1N(C)S(C)(=O)=O [II-73] registered its GI50 at 500 to 2500 nM

The compound identified as C=Cc1cnc(Nc2cc(CC)c(N3CCC(N4CCN(C)CC4)CC3)cc2OC)nc1Nc1ccc2nccnc2c1S(C)(=O)=O [III-1] registered its GI50 at 50 to 500 nM

The compound identified as C=Cc1cnc(Nc2ccc(N3CCC(N4CCN(C)CC4)CC3)c(CC)c2)nc1Nc1ccc2nccnc2c1S(=O)(=O)NC [IV-9] registered its GI50 at 50 to 500 nM

The compound identified as C=Cc1cnc(Nc2ccc3c(c2)CN(C)CC3)nc1Nc1ccc2nccnc2c1N(C)S(C)(=O)=O [II-77] registered its GI50 at ≤ 50 nM
